All figures here come from the supplement of paper PMC8728848.

tested_on: Fuc(a1-3)[Gal3S(b1-4)]Glc
assay_notes: glycan array binding signal (z-score within array); higher = stronger binding
assay_conditions: glycan notation: IUPAC condensed, linker removed
This excerpt belongs to a sample that is enriched for the strongest signals.

binder: MIC1 (Toxoplasma gondii), O00834 (protein) VGPEAYGEASHSHSPASGRYIQQMLDQRCQEIAAELCQSGLRKMCVPSSRIVARNAVGITHQNTLQWRCFDTASLLESNQENNGVNCVDDCGHTIPCPGGVHRQNSNHATRHEILSKLVEEGVQRFCSPYQASANKYCNDKFPGTIARRSKGFGNNVEVAWRCYEKASLLYSVYAECASNCGTTWYCPGGRRGTSTELDKRHYTEEEGIRQAIGSVDSPCSEVEVCLPKDENPPLCLDESGQISRT
glycan array binding signal (z-score): -0.041
//
binder: LF82 (Escherichia coli) (protein) ADWGPCRTASGDPFIFVTSFTKNIQNPTDNVTGQTYPDFYQWALGDKYSGVCECPSPNPTEARPTLYKTESTLAAGHNSTYFKITNNLEVSTRVYIANVGNVQVPFINKSNSQPGRECDQPTFGWTTGSKGQLSLYIAKPFVGEQNIPQTIIVSVFGTKKENVYSSVPISQVLLSGKVTVTQGCELAAGTSLDIDFGEYQAHDFKGRTGQPPQNVQKIQKELTFNCTNISDGVHIYLSLEGTPNAAYPSAISLGNADVGAVIEDGKGNILKPNDSNSLLEMNPGSLYEYVKRKVTTTITAYPVSTTGKLPAAGDYSGVATMHVELDGGGGGGGGGGATTDLGAKGTLKFSLKISQGHHHHHH
glycan array binding signal (z-score): 0.085
//
binder: HBHA-Rv (Mycobacterium tuberculosum), P0A5P6 (protein) MAENSNIDDIKAPLLAALGAADLALATVNELITNLRERAEETRTDTRSRVEESRARLTKLQEDLPEQLTELREKFTAEELRKAAEGYLEAATSRYNELVERGEAALERLRSQQSFEEVSARAEGYVDQAVELTQEALGTVASQTRAVGERAAKLVGIELPKKAAPAKKAAPAKKAAPAKKAAAKKAPAKKAAAKKVTQK
glycan array binding signal (z-score): -0.017
//
binder: Wzz (Escherichia coli) (protein) MRTWKFPSVRVMMRVENNNVSGQNHDPEQIDLIDLLVQLWRGKMTIIISVIVAIVLAIGYLAVAKEKWTSTAIITQPDVGQIAGYNNAMNVIYGQAAPKVSDLQETLIGRFSSAFSALAETLDNQEEPEKLTIEPSVKNQQLPLTVSYVGQTAEGAQMKLAQYIQQVDDKVNQELEKDLKDNIALGRKNLQDSLRTQEVVAQEQKDLRIRQIQEALQYANQAQVTKPQIQQTGEDITQDTLFLLGSEALESMIKHEATRPLVFSSNYYQTRQNLLDIDNLDVDKLDIHAYLYVMKPTLPIRRDSPKKAITLILAVLLGGMVGAGIVLGRNALRNYNAK
glycan array binding signal (z-score): -0.538
